# system.tested: T1, human RXFP1 (human, UniProt Q9HBX9 1-757)
# T1 sequence (looked up): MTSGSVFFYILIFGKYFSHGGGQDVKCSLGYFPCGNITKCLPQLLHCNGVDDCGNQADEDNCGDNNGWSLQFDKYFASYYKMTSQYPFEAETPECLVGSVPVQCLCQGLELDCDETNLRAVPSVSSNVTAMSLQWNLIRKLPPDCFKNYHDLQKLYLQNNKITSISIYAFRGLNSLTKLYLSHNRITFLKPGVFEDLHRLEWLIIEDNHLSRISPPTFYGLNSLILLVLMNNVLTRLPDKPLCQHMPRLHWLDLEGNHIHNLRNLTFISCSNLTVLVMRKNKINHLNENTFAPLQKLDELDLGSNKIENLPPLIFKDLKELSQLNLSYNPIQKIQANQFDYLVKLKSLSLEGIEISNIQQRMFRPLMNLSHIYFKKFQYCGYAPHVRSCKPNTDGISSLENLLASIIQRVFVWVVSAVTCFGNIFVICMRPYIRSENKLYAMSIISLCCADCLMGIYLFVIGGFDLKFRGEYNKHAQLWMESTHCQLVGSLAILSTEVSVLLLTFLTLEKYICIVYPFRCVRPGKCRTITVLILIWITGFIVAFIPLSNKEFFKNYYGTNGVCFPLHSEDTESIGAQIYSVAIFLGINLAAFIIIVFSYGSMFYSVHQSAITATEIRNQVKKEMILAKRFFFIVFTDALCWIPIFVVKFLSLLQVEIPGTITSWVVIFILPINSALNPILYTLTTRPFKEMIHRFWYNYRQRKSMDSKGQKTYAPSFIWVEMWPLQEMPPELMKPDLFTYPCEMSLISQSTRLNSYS
# method.description: cell-based or functional assay
Numbered stars: 1 amine (or outer) side, 2 acyl side, 3 side chain; on linkers, the order of the positions; unused ones are H or OH. Square brackets hold non-standard residues; d marks the D form. Side chains are listed from the residue outwards. * marks the point of attachment. TTDS = 4-[3-[2-[2-(3-aminopropoxy)ethoxy]ethoxy]propylamino]-4-oxo-butanoyl; γGlu = O=C(O)[C@H](CCC(=O)[*:2])N[*:1]; Stearoyl = CCCCCCCCCCCCCCCCCC(=O)*; Palmitoyl = CCCCCCCCCCCCCCCC(=O)*; αMeK = C[C@](N)(CCCCN)C(=O)O; Aib = CC(C)(N)C(=O)O
experimental.endpoint: EMax, OVCAR 5 cells (cAMP)
Lab note: write values as number then unit, every time.

| binder | EMax, OVCAR 5 cells (cAMP) |
| --- | --- |
| Ac-LEGREKVRAK(Ac)I[Aib][Aib]EGK([TTDS-TTDS-TTDS-γGlu-γGlu-γGlu-Palmitoyl])STWS[αMeK]RAK(Ac)-NH2 [Relaxin peptide analogue of SEQ ID NO: 11] | 93% |

// switching to the query binder
Data point: Ac-LEGREKVRAK(Ac)I[Aib][Aib]EGK([TTDS-TTDS-γGlu-γGlu-γGlu-Stearoyl])STFS[αMeK]RAK(Ac)-NH2 [Relaxin peptide analogue of SEQ ID NO: 34] ; EMax, OVCAR 5 cells (cAMP) = 90%
